# STUDY TARGET: Anoctamin-1 (Mus musculus) (UniProt Q8BHY3)
# Sequence (Q8BHY3 whole entry, looked up): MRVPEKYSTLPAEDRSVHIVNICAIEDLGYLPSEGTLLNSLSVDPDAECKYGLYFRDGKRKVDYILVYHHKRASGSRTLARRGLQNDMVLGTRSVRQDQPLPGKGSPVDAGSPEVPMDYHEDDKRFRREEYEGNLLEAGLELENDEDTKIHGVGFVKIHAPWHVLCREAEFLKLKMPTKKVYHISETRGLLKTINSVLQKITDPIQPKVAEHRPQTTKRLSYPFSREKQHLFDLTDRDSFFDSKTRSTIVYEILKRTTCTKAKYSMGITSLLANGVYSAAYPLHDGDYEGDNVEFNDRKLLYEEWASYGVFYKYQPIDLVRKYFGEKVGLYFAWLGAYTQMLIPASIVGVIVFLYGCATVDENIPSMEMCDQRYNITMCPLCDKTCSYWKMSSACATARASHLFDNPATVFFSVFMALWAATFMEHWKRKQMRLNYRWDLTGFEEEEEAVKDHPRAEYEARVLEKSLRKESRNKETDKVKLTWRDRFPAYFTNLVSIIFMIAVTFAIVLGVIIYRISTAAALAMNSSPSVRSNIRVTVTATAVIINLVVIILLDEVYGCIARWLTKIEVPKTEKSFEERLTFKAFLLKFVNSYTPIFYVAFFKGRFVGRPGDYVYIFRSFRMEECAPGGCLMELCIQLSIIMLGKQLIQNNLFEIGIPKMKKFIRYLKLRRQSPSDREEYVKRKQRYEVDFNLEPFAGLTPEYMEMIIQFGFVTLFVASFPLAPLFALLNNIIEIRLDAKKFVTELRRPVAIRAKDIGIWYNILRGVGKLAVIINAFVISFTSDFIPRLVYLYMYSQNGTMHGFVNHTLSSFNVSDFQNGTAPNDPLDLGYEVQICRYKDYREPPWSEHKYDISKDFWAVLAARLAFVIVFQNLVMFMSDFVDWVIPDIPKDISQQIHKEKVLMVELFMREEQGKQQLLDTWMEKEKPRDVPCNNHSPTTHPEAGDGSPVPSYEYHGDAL
# ASSAY INFO: blockers of mouse ANO1 Ca-activated Cl channel – cell-based, HTS, primary screen (AID 588511)
# MEASUREMENT PARAMETERS: HEK293 TMEM16A/YFP iodide influx fluorescence, ionomycin; at 10 µM
About 3,600 (1.2%) of roughly 310,000 compounds were called active.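 Rule for the calls: active = ratio plate-corrected score three or more library SD toward inhibition, starting fluorescence score within five deviations; inactive = the rest.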 Shown is part of a subset that was picked to be rich in actives.
# output must be one of TRUE for active, FALSE for inactive

IN: Any idea what this test logged for "CCOC(=O)N1CCN(C(=O)c2ccc3nc4cc(Cl)ccc4c(=O)n3c2)CC1" ?
OUT: FALSE

New cases:
IN: Any idea what this test logged for "CC1=C/C(=N\OS(=O)(=O)c2ccccc2)C=CC1=O" ?
OUT: TRUE

IN: Any idea what this test logged for "Cc1[nH]n(-c2ccccc2)c(=O)c1/C=N/NC(=O)c1ccoc1C" ?
OUT: FALSE

====

# STUDY TARGET: Anoctamin-1 (Mus musculus)
# ASSAY INFO: blockers of mouse ANO1 Ca-activated Cl channel – cell-based, HTS, primary screen (AID 588511);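 for normalized B-score (activity score, 25-100; higher = stronger inhibition): score derived from kinetic fluorescence span divided by baseline fluorescence per well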
# MEASUREMENT PARAMETERS: HEK293 TMEM16A/YFP iodide influx fluorescence, ionomycin; at 10 µM
The campaign covered roughly 310,000 compounds. About 3,600 (1.2%) were called active. Only a selection was taken, and actives are over-represented in it overall.
RECORDED METRIC: normalized B-score (activity score, 25-100; higher = stronger inhibition)

IN: Provide value of normalized B-score (activity score, 25-100; higher = stronger inhibition) for this record tested with Anoctamin-1 (Mus musculus): "C=CCn1c(SCC(=O)NCc2ccccc2)nnc1-c1cc(Br)ccc1O"
OUT: inactive

IN: Provide value of normalized B-score (activity score, 25-100; higher = stronger inhibition) for this record tested with Anoctamin-1 (Mus musculus): CC1Cc2ccccc2N1S(=O)(=O)c1c(N)n(C)c(=O)n(C)c1=O (stereo not drawn)
OUT: inactive

IN: Provide value of normalized B-score (activity score, 25-100; higher = stronger inhibition) for this record tested with Anoctamin-1 (Mus musculus): C=CCOc1ccc(/C=C/C(=O)OC(C)C(=O)Nc2ccc(NC(C)=O)cc2)cc1 (stereo not drawn)
OUT: inactive

IN: Provide value of normalized B-score (activity score, 25-100; higher = stronger inhibition) for this record tested with Anoctamin-1 (Mus musculus): "O=C(CSc1nnnn1-c1ccc(O)cc1)c1ccc(F)cc1"
OUT: inactive

IN: Provide value of normalized B-score (activity score, 25-100; higher = stronger inhibition) for this record tested with Anoctamin-1 (Mus musculus): CCOc1ccc(S(=O)(=O)N2CCN(C(=S)NCC3CCCO3)CC2)cc1 (stereo not drawn)
OUT: inactive

IN: Provide value of normalized B-score (activity score, 25-100; higher = stronger inhibition) for this record tested with Anoctamin-1 (Mus musculus): "CNS(=O)(=O)c1cnccc1N1CCN(c2cccc(C)c2)CC1"
OUT: inactive

IN: Provide value of normalized B-score (activity score, 25-100; higher = stronger inhibition) for this record tested with Anoctamin-1 (Mus musculus): COc1ccc(-n2ncc3c2CC(C)(C)CC3NC(=O)CCc2c(C)nn(C)c2C)cc1 (stereo not drawn)
OUT: inactive

Here is another molecule to look at.
IN: Provide value of normalized B-score (activity score, 25-100; higher = stronger inhibition) for this record tested with Anoctamin-1 (Mus musculus): "Cc1ccccc1-n1nnnc1SCCCC(=O)c1ccc(F)cc1"
OUT: 100 (active)
